# test_description: Stability of the ginsenosides in rat plasma (QC samples)
# Assay type: in vitro ADME
# test_conditions: rat plasma, low QC (7.2 Rb1, 3.2 Rb2, 2.4 Rd, 5.0 Re ng/mL); 1 month at −80°C
outcome_measure: Re (%) Short term
Just the number in %, nothing appended.

Re (%) Short term reported for this molecule CC(C)=CCC[C@](C)(O[C@@H]1O[C@H](CO)[C@@H](O)[C@H](O)[C@H]1O)[C@H]1CC[C@]2(C)[C@@H]1[C@H](O)C[C@@H]1[C@@]3(C)CC[C@H](O[C@@H]4O[C@H](CO)[C@@H](O)[C@H](O)[C@H]4O[C@@H]4O[C@H](CO)[C@@H](O)[C@H](O)[C@H]4O)C(C)(C)[C@@H]3CC[C@]12C : 8.64

----------
# test_description: Stability of the ginsenosides in rat plasma (QC samples)
# Type: in vitro ADME
# test_conditions: rat plasma, high QC (911.4 Rb1, 400.0 Rb2, 312.2 Rd, 630.8 Re ng/mL); three freeze-thaw cycles at −80°C
outcome_measure: Re (%) Freeze-thaw cycles
Express your answer in %, writing the number without its unit.

Worked cases, Re (%) Freeze-thaw cycles given:
| molecule_smiles | Re (%) Freeze-thaw cycles |
| --- | --- |
| CC(C)=CCC[C@](C)(O[C@@H]1O[C@H](CO)[C@@H](O)[C@H](O)[C@H]1O)[C@H]1CC[C@]2(C)[C@@H]1[C@H](O)C[C@@H]1[C@@]3(C)CC[C@H](O[C@@H]4O[C@H](CO)[C@@H](O)[C@H](O)[C@H]4O[C@@H]4O[C@H](CO)[C@@H](O)[C@H](O)[C@H]4O)C(C)(C)[C@@H]3CC[C@]12C | 8.12 |
| CC(C)=CCC[C@](C)(O[C@@H]1O[C@H](CO)[C@@H](O)[C@H](O)[C@H]1O)[C@H]1CC[C@]2(C)[C@@H]1[C@H](O)C[C@@H]1[C@@]3(C)CC[C@H](O)C(C)(C)[C@@H]3[C@@H](O[C@@H]3O[C@H](CO)[C@@H](O)[C@H](O)[C@H]3O[C@@H]3O[C@@H](C)[C@H](O)[C@@H](O)[C@H]3O)C[C@]12C | −9.85 |
| CC(C)=CCC[C@](C)(O[C@@H]1O[C@H](CO[C@@H]2OC[C@H](O)[C@H](O)[C@H]2O)[C@@H](O)[C@H](O)[C@H]1O)[C@H]1CC[C@]2(C)[C@@H]1[C@H](O)C[C@@H]1[C@@]3(C)CC[C@H](O[C@@H]4O[C@H](CO)[C@@H](O)[C@H](O)[C@H]4O[C@@H]4O[C@H](CO)[C@@H](O)[C@H](O)[C@H]4O)C(C)(C)[C@@H]3CC[C@]12C | 9.36 |

Just so you know, measured Re (%) Freeze-thaw cycles for CC(C)=CCC[C@](C)(O[C@@H]1O[C@H](CO[C@@H]2O[C@H](CO)[C@@H](O)[C@H](O)[C@H]2O)[C@@H](O)[C@H](O)[C@H]1O)[C@H]1CC[C@]2(C)[C@@H]1[C@H](O)C[C@@H]1[C@@]3(C)CC[C@H](O[C@@H]4O[C@H](CO)[C@@H](O)[C@H](O)[C@H]4O[C@@H]4O[C@H](CO)[C@@H](O)[C@H](O)[C@H]4O)C(C)(C)[C@@H]3CC[C@]12C came out at 7.75
